Reported DC50 values for the following compounds.
- Test system: cyclin K–eGFP degradation reporter
- assay_remarks: Cyclin K reporter stability analysis (dual-color cyclin K–eGFP reporter)
- Assay type: cell-based, human
- setup_conditions: Supplementary Table 2; HEK293T cycK-eGFP reporter, 5 h; read-out: Cellular assays DC50
readout_kind: DC50

CC[C@H](CO)Nc1nc(NCCC2CCCCCCC2)c2ncn(C(C)C)c2n1 = > 10 µM
CC[C@H](CO)Nc1nc(NCc2ccc(-c3ccc(C)s3)cc2)c2ncn(C(C)C)c2n1 = 0.09 µM
CC[C@H](CO)Nc1nc(NCCOCc2ccccc2)c2ncn(C(C)C)c2n1 = > 10 µM
CC[C@H](CO)Nc1nc(NCCCc2ccco2)c2ncn(C(C)C)c2n1 = > 10 µM
CC[C@H](CO)Nc1nc(NCCCCCCc2ccccc2)c2ncn(C(C)C)c2n1 = > 10 µM

* * *

- measured_on: CDK12–cyclin K and DDB1 (Homo sapiens, UniProt Q16531+Q9NYV4, K965R)
- Construct: His6–CDK12 (a.a. 713–1,052); full-length or beta-propeller B domain deletion (ΔBPB: a.a. 396–705 deleted) constructs of His6–DDB1ΔBPB, StrepII–Avi–DDB1, or His6–Spy–DDB1; made in house; host or cells: Trichoplusia ni High Five insect cells (baculovirus)
- Sequence (Q9NYV4 713-1052 K965R): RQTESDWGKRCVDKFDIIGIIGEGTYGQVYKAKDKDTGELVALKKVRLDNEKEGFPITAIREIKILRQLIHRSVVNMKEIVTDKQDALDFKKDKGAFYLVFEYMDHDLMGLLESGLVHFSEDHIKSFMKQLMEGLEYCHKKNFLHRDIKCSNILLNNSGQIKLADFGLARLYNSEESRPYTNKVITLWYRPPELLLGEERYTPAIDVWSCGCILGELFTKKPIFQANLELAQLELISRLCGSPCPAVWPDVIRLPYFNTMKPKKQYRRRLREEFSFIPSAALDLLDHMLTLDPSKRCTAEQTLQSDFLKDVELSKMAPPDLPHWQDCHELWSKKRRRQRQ
- Sequence (O75909 1-267 partner): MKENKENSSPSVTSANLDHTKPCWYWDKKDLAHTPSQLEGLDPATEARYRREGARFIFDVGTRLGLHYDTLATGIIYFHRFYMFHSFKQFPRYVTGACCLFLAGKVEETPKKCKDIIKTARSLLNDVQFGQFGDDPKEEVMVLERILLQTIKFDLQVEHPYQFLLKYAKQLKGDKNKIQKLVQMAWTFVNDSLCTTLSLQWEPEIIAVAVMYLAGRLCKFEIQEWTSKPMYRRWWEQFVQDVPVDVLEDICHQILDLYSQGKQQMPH
- Sequence (Q16531 whole entry): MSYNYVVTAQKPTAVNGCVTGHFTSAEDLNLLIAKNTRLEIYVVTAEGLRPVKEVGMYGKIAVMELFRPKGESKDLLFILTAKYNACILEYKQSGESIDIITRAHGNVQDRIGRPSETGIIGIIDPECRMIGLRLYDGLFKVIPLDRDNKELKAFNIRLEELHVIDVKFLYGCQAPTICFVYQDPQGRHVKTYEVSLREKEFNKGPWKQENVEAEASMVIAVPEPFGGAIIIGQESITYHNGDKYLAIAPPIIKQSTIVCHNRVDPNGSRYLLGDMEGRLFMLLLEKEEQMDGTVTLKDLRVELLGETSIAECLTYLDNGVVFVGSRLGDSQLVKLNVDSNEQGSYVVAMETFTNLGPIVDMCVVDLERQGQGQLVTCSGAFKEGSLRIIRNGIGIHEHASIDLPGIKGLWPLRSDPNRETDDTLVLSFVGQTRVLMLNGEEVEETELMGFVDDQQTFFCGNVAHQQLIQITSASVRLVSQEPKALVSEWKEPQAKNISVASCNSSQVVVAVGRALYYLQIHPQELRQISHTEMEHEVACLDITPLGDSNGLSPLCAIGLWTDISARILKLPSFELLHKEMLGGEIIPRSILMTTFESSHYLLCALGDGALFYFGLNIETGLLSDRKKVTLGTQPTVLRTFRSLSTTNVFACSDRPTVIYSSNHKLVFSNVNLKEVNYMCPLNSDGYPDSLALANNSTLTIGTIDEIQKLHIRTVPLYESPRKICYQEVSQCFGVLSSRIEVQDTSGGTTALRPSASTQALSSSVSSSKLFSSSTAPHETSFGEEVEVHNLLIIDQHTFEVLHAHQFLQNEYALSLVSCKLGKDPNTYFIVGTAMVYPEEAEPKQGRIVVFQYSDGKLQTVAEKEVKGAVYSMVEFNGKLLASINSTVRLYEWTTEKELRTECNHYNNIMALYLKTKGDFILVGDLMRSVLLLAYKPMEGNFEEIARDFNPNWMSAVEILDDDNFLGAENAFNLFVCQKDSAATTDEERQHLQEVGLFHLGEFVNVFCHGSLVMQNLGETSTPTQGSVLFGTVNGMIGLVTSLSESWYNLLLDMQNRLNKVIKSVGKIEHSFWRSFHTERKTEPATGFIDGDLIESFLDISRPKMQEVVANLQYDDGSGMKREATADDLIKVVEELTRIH
- assay_remarks: TR-FRET Kd determination, quadratic fit, 50 nM or 10 nM CDK12–cyclin K
- Format: binding
- setup_conditions: 10 nM CDK12-cyclin K; compound 15.84 nM
readout_kind: TR-FRET signal

Cc1cc2nc(CNc3nc(N4CCN(C)CC4)nc4c(Br)cnn34)[nH]c2cc1C [DS73, reference compound] = 0.4992
CC[C@H](CO)Nc1nc(NCc2nc3cc(Cl)c(Cl)cc3[nH]2)c2ncn(C(C)C)c2n1 = 0.5468
CCC(CO)Nc1nc(NCc2ccc(-c3ccccn3)cc2)c2ncn(C(C)C)c2n1 (stereo not shown) [CR8, reference compound] = 0.3713
CCC(CO)Nc1nc(NCc2ccc(-c3ccccc3)cc2)c2ncn(C(C)C)c2n1 (stereo not shown) = 0.3471

* * *

- measured_on: CDK12–cyclin K and DDB1 (Homo sapiens, UniProt Q16531+Q9NYV4, K965R)
- Construct: His6–CDK12 (a.a. 713–1,052); full-length or beta-propeller B domain deletion (ΔBPB: a.a. 396–705 deleted) constructs of His6–DDB1ΔBPB, StrepII–Avi–DDB1, or His6–Spy–DDB1; made in house; host or cells: Trichoplusia ni High Five insect cells (baculovirus)
- assay_remarks: TR-FRET Kd determination, quadratic fit, 50 nM or 10 nM CDK12–cyclin K
- Type: binding
- setup_conditions: 10 nM CDK12-cyclin K; compound 3.6 nM
Listing of entries alongside the reported TR-FRET signal.
readout_kind: TR-FRET signal

CCC(CO)Nc1nc(NCc2ccc(-c3ccccn3)cc2)c2ncn(C(C)C)c2n1 (stereo not shown) [CR8, reference compound] = 0.1982
CCC(CO)Nc1nc(NCc2ccc(-c3ccccc3)cc2)c2ncn(C(C)C)c2n1 (stereo not shown) [DS16] = 0.2175
Cc1cc2nc(CNc3nc(N4CCN(C)CC4)nc4c(Br)cnn34)[nH]c2cc1C [DS73, reference compound] = 0.3284
CC[C@H](CO)Nc1nc(NCc2nc3cc(Cl)c(Cl)cc3[nH]2)c2ncn(C(C)C)c2n1 [DS17] = 0.4087
